# assay.info: Plasma clearance in BALB/C mouse at 50 mg/kg, ip administered via bolus dose using DMSO formulation measured at 1 to 24 hrs post dose by UV/LC-MS analysis
# Format: ADME, organism-based
recorded.endpoint: CL/F (mL/min)

{"compound": "CN1CCN(CCOC(=O)N(c2cccc(Br)c2)c2nc(SCCN3CCOCC3)nc3c2cnn3CC(Cl)c2ccccc2)CC1 (configuration not stated)", "numeric.value": 0.14}
{"compound": "ClC(Cn1ncc2c(Nc3cccc(Br)c3)nc(SCCN3CCOCC3)nc21)c1ccccc1 (configuration not stated)", "numeric.value": 0.46}

----------
# assay.info: Metabolic stability in mouse liver microsomes assessed as unmetabolized compound remaining at 50 uM after 1 hr in presence of NADPH regenerating system by UV/LC-MS analysis
# Assay type: ADME, microsome
# measurement.setup: read-out: Stability
Below is a list of entries, each paired with its recorded remaining at 1 h, 50 µM value.
recorded.endpoint: remaining at 1 h, 50 µM

{"compound": "CN1CCN(CCOC(=O)N(c2cccc(Br)c2)c2nc(SCCN3CCOCC3)nc3c2cnn3CC(Cl)c2ccccc2)CC1 (centres undefined)", "result": "93.1%"}
{"compound": "CSc1nc(N(C(=O)OCCN2CCN(C)CC2)c2cccc(Br)c2)c2cnn(CC(C)c3ccccc3)c2n1 (centres undefined)", "result": "93.3%"}
{"compound": "CSc1nc(Nc2cccc(Br)c2)c2cnn(CC(C)c3ccccc3)c2n1 (centres undefined)", "result": "94.2%"}
{"compound": "ClC(Cn1ncc2c(Nc3cccc(Br)c3)nc(SCCN3CCOCC3)nc21)c1ccccc1 (centres undefined)", "result": "89.2%"}

----------
Below is a list of entries, each paired with its recorded half-life value.
# assay.info: Half life in BALB/C mouse at 50 mg/kg, ip administered via bolus dose using DMSO formulation measured at 1 to 24 hrs post dose by UV/LC-MS analysis
# Format: ADME, organism-based
# measurement.setup: in vivo
recorded.endpoint: half-life (h)

{"compound": "CN1CCN(CCOC(=O)N(c2cccc(Br)c2)c2nc(SCCN3CCOCC3)nc3c2cnn3CC(Cl)c2ccccc2)CC1 (configuration not stated)", "recorded.endpoint": "half-life", "unit.of.measurement": "h", "numeric.value": 23.8}
{"compound": "ClC(Cn1ncc2c(Nc3cccc(Br)c3)nc(SCCN3CCOCC3)nc21)c1ccccc1 (configuration not stated)", "recorded.endpoint": "half-life", "unit.of.measurement": "h", "numeric.value": 14.8}

----------
Below is a list of entries, each paired with its recorded half-life at 100 µM value.
# assay.info: Half life in methanol at 100 uM by UV/LC-MS analysis
# Type: physicochemical

{"compound": "CN1CCN(CCOC(=O)N(c2ccccc2)c2ncnc3c2cnn3CC(Cl)c2ccc(Br)cc2)CC1 (centres undefined)", "half-life at 100 µM": "> 48 h"}
{"compound": "CCCCN(C(=O)OCCN1CCN(C)CC1)c1nc(SCC)nc2c1cnn2CC(Cl)c1ccccc1 (centres undefined)", "half-life at 100 µM": "2 h"}
{"compound": "CCC(CN1CCN(C)CC1)OC(=O)N(c1cccc(Br)c1)c1nc(SC)nc2c1cnn2CC(C)c1ccccc1 (centres undefined)", "half-life at 100 µM": "> 48 h"}
{"compound": "CSc1nc(N(C(=O)OCCN2CCN(C)CC2)c2cccc(Cl)c2)c2cnn(CCc3ccccc3)c2n1", "half-life at 100 µM": "> 48 h"}
{"compound": "CSc1nc(N(C(=O)OC(C)CN2CCN(C)CC2)c2cccc(Br)c2)c2cnn(CC(C)c3ccccc3)c2n1 (centres undefined)", "half-life at 100 µM": "> 48 h"}
{"compound": "CSc1nc(N(C(=O)OCCN2CCN(C)CC2)c2cccc(Cl)c2)c2cnn(CC(Cl)c3ccccc3)c2n1 (centres undefined)", "half-life at 100 µM": "> 48 h"}
{"compound": "CSc1nc(N(CCc2ccccc2)C(=O)OCCN2CCN(C)CC2)c2cnn(CC(Cl)c3ccccc3)c2n1 (centres undefined)", "half-life at 100 µM": "> 48 h"}
{"compound": "CN1CCN(CCOC(=O)N(Cc2ccccc2)c2ncnc3c2cnn3CC(Cl)c2ccccc2)CC1 (centres undefined)", "half-life at 100 µM": "> 48 h"}
{"compound": "CSc1nc(N(C(=O)OC(CN2CCN(C)CC2)c2ccccc2)c2cccc(Br)c2)c2cnn(CC(C)c3ccccc3)c2n1 (centres undefined)", "half-life at 100 µM": "< 0.25 h"}

----------
# assay.info: AUC (0 to 24 hrs) in BALB/C mouse at 50 mg/kg, ip administered via bolus dose using DMSO formulation measured at 1 to 24 hrs post dose by UV/LC-MS analysis
# Format: ADME, organism-based
# Design: dose 50 mg/kg, time < 24 hr, route intraperitoneal
# measurement.setup: in vivo
Below is a list of entries, each paired with its recorded AUC(0-t) at 24 h value.

{"molecule": "ClC(Cn1ncc2c(Nc3cccc(Br)c3)nc(SCCN3CCOCC3)nc21)c1ccccc1 (configuration not stated)", "unit.of.measurement": "µM·h", "AUC(0-t) at 24 h": 56.1}
{"molecule": "CN1CCN(CCOC(=O)N(c2cccc(Br)c2)c2nc(SCCN3CCOCC3)nc3c2cnn3CC(Cl)c2ccccc2)CC1 (configuration not stated)", "unit.of.measurement": "µM·h", "AUC(0-t) at 24 h": 136}

----------
# Tested on: Mus musculus
# assay.info: Cmax in BALB/C mouse assessed as N-(3-bromophenyl)-1-(2-chloro-2-phenylethyl)-6-(2-morpholinoethylthio)-1H-pyrazolo[3,4-d]pyrimidin-4-amine level at 50 mg/kg, ip administered via bolus dose using DMSO formulation measured at 1 to 24 hrs post dose by UV/LC-MS analysis
# Format: ADME, organism-based
# Parameters: dose 50 mg/kg, route intraperitoneal
# measurement.setup: in vivo

{"compound": "ClC(Cn1ncc2c(Nc3cccc(Br)c3)nc(SCCN3CCOCC3)nc21)c1ccccc1 (stereo unspecified)", "Cmax": "6.07 µM"}

----------
# assay.info: Half life in human plasma by UV/LC-MS analysis
# Assay type: ADME, cell-free
Below is a list of entries, each paired with its recorded half-life value.

{"molecule": "CN1CCN(CCOC(=O)N(Cc2ccccc2)c2ncnc3c2cnn3CC(Cl)c2ccccc2)CC1 (centres undefined)", "half-life, h": 64.4}
{"molecule": "CSc1nc(N(CCc2ccccc2)C(=O)OCCN2CCN(C)CC2)c2cnn(CC(Cl)c3ccccc3)c2n1 (centres undefined)", "half-life, h": 45.2}
{"molecule": "CCCCN(C(=O)OCCN1CCN(C)CC1)c1nc(SCC)nc2c1cnn2CC(Cl)c1ccccc1 (centres undefined)", "half-life, h": 0.46}
{"molecule": "CCC(CN1CCN(C)CC1)OC(=O)N(c1cccc(Br)c1)c1nc(SC)nc2c1cnn2CC(C)c1ccccc1 (centres undefined)", "half-life, h": 11.3}
{"molecule": "CSc1nc(N(C(=O)OCCN2CCN(C)CC2)c2cccc(Cl)c2)c2cnn(CC(Cl)c3ccccc3)c2n1 (centres undefined)", "half-life, h": 3.71}
{"molecule": "CSc1nc(N(C(=O)OCCN2CCN(C)CC2)c2cccc(Cl)c2)c2cnn(CCc3ccccc3)c2n1", "half-life, h": 3.13}
{"molecule": "CSc1nc(N(C(=O)OC(Cc2ccccc2)CN2CCN(C)CC2)c2cccc(Br)c2)c2cnn(CC(C)c3ccccc3)c2n1 (centres undefined)", "half-life, h": 40}
{"molecule": "CN1CCN(CCOC(=O)N(Cc2ccccc2Cl)c2ncnc3c2cnn3CC(Cl)c2ccc(Br)cc2)CC1 (centres undefined)", "half-life, h": 75}
{"molecule": "CN1CCN(CCOC(=O)N(c2ccccc2)c2ncnc3c2cnn3CC(Cl)c2ccc(Br)cc2)CC1 (centres undefined)", "half-life, h": 5.68}

----------
Below is a list of entries, each paired with its recorded Papp at 5 h, 500 µM value.
# assay.info: physchem
# measurement.setup: PAMPA
# Description: Apparent permeability at 500 uM after 5 hrs by Gastro-intestinal-based PAMPA

{"molecule": "CN1CCN(CCOC(=O)N(Cc2ccccc2)c2ncnc3c2cnn3CC(Cl)c2ccccc2)CC1 (configuration not stated)", "Papp at 5 h, 500 µM [×10⁻⁶ cm/s]": 6.7}
{"molecule": "CSc1nc(N(C(=O)OCCN2CCN(C)CC2)c2cccc(Cl)c2)c2cnn(CCc3ccccc3)c2n1", "Papp at 5 h, 500 µM [×10⁻⁶ cm/s]": 4.69}
{"molecule": "CSc1nc(Nc2cccc(Br)c2)c2cnn(CC(C)c3ccccc3)c2n1 (configuration not stated)", "Papp at 5 h, 500 µM [×10⁻⁶ cm/s]": 0.01}
{"molecule": "CSc1nc(N(C(=O)OC(Cc2ccccc2)CN2CCN(C)CC2)c2cccc(Br)c2)c2cnn(CC(C)c3ccccc3)c2n1 (configuration not stated)", "Papp at 5 h, 500 µM [×10⁻⁶ cm/s]": 2.32}
{"molecule": "CN1CCN(CCOC(=O)N(c2cccc(Br)c2)c2nc(SCCN3CCOCC3)nc3c2cnn3CC(Cl)c2ccccc2)CC1 (configuration not stated)", "Papp at 5 h, 500 µM [×10⁻⁶ cm/s]": 2.13}
{"molecule": "CSc1nc(N(C(=O)OCCN2CCN(C)CC2)c2cccc(Cl)c2)c2cnn(CC(Cl)c3ccccc3)c2n1 (configuration not stated)", "Papp at 5 h, 500 µM [×10⁻⁶ cm/s]": 4.95}
{"molecule": "CSc1nc(N(C(=O)OC(C)CN2CCN(C)CC2)c2cccc(Br)c2)c2cnn(CC(C)c3ccccc3)c2n1 (configuration not stated)", "Papp at 5 h, 500 µM [×10⁻⁶ cm/s]": 2.15}
{"molecule": "CCC(CN1CCN(C)CC1)OC(=O)N(c1cccc(Br)c1)c1nc(SC)nc2c1cnn2CC(C)c1ccccc1 (configuration not stated)", "Papp at 5 h, 500 µM [×10⁻⁶ cm/s]": 1.45}
{"molecule": "CSc1nc(N(CCc2ccccc2)C(=O)OCCN2CCN(C)CC2)c2cnn(CC(Cl)c3ccccc3)c2n1 (configuration not stated)", "Papp at 5 h, 500 µM [×10⁻⁶ cm/s]": 0.85}
{"molecule": "CSc1nc(NCCc2ccccc2)c2cnn(CC(Cl)c3ccccc3)c2n1 (configuration not stated)", "Papp at 5 h, 500 µM [×10⁻⁶ cm/s]": 7.4}
{"molecule": "CN1CCN(CCOC(=O)N(c2ccccc2)c2ncnc3c2cnn3CC(Cl)c2ccc(Br)cc2)CC1 (configuration not stated)", "Papp at 5 h, 500 µM [×10⁻⁶ cm/s]": 9.91}
{"molecule": "CN1CCN(CCOC(=O)N(Cc2ccccc2Cl)c2ncnc3c2cnn3CC(Cl)c2ccc(Br)cc2)CC1 (configuration not stated)", "Papp at 5 h, 500 µM [×10⁻⁶ cm/s]": 2.38}

The values you see were collected from ChEMBL document CHEMBL4011641.
